Reported IC50 values for a set of compounds
Target: MAGL (Homo sapiens (Human))
Sequence (Q99685 whole entry, species assumed): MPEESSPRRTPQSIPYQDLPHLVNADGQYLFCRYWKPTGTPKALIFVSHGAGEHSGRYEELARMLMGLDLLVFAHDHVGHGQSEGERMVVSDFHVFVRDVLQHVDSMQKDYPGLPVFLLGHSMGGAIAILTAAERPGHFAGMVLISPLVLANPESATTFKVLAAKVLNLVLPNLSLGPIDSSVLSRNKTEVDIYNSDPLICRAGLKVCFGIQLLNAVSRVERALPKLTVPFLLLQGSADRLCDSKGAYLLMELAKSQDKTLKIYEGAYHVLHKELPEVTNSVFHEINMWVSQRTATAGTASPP

{"COMPOUND": "O=C1CO[C@H]2CCN(C(=O)N3CC(OCc4cc(C(F)(F)F)cc(Oc5ccc(F)cc5)n4)C3)C[C@H]2N1", "SUBJECT OF TEST": "MAGL (Homo sapiens (Human))", "IC50 (nM)": 12}
{"COMPOUND": "O=C1CO[C@H]2CCN(C(=O)N3CC(Oc4cc(Cl)cc(N5CCCC5)c4)C3)C[C@H]2N1", "SUBJECT OF TEST": "MAGL (Homo sapiens (Human))", "IC50 (nM)": 211}
{"COMPOUND": "O=C1CO[C@H]2CCN(C(=O)N3CC(Oc4cccc(N5CC6(CCCCO6)C5)c4Cl)C3)C[C@H]2N1", "SUBJECT OF TEST": "MAGL (Homo sapiens (Human))", "IC50 (nM)": 19}
{"COMPOUND": "O=C1CO[C@H]2CCN(C(=O)N3CC(Oc4ccc(C(F)(F)F)c(N5CC(F)(F)C5)c4)C3)C[C@H]2N1", "SUBJECT OF TEST": "MAGL (Homo sapiens (Human))", "IC50 (nM)": 42}
{"COMPOUND": "O=C1CO[C@H]2CCN(C(=O)N3CCCC(Cc4ccc(C(F)(F)F)cc4)CC3)C[C@H]2N1 (stereo partly drawn)", "SUBJECT OF TEST": "MAGL (Homo sapiens (Human))", "IC50 (nM)": 75}
{"COMPOUND": "O=C1CO[C@H]2CCN(C(=O)N3CCC(Oc4ccc(C(F)(F)F)cc4F)CC3)C[C@H]2N1", "SUBJECT OF TEST": "MAGL (Homo sapiens (Human))", "IC50 (nM)": 64}
{"COMPOUND": "O=C1CO[C@H]2CCN(C(=O)N3CCC(Cc4c(F)cc(C(F)(F)F)cc4F)CC3)C[C@H]2N1", "SUBJECT OF TEST": "MAGL (Homo sapiens (Human))", "IC50 (nM)": 17}
{"COMPOUND": "Cc1cc(OCC2CCN(C(=O)N3CC[C@@H]4OCC(=O)N[C@@H]4C3)CC2)cnc1C(F)(F)F", "SUBJECT OF TEST": "MAGL (Homo sapiens (Human))", "IC50 (nM)": 34}
{"COMPOUND": "O=C1CO[C@H]2CCN(C(=O)N3CC(OCC4(c5ccc(Cl)cc5Cl)CC4)C3)C[C@H]2N1", "SUBJECT OF TEST": "MAGL (Homo sapiens (Human))", "IC50 (nM)": 15}
{"COMPOUND": "Cc1ccc(/C=C/C2CN(C(=O)N3CC[C@@H]4OCC(=O)N[C@@H]4C3)C2)c(F)c1", "SUBJECT OF TEST": "MAGL (Homo sapiens (Human))", "IC50 (nM)": 6}
{"COMPOUND": "O=C1CO[C@H]2CCN(C(=O)N3CCC(Oc4ccc(Cl)c(-n5cncn5)c4)CC3)C[C@H]2N1", "SUBJECT OF TEST": "MAGL (Homo sapiens (Human))", "IC50 (nM)": 50}
{"COMPOUND": "O=C1CO[C@H]2CCN(C(=O)N3CC(OCc4ccc(C(F)(F)F)cc4C(F)(F)F)C3)C[C@H]2N1", "SUBJECT OF TEST": "MAGL (Homo sapiens (Human))", "IC50 (nM)": 5}
